Value source: ChEMBL document CHEMBL5329203

Target: Latent membrane protein 1 (Human herpesvirus 4 (strain B95-8))
Sequence (P03230 whole entry): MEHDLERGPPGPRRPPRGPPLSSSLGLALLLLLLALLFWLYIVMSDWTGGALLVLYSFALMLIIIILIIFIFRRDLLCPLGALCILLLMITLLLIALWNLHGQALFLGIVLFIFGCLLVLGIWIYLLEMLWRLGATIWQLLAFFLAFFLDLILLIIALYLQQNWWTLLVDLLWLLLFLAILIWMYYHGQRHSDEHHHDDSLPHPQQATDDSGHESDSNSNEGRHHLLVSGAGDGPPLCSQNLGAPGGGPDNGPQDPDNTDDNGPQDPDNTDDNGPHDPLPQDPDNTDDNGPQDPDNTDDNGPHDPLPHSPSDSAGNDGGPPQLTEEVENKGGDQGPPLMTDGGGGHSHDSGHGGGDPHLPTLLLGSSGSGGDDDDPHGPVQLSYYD
Test: Binding affinity to Epstein Barr virus LMP1 assessed as dissociation constant
Recorded Endpoint: Kd (nM)
Quick note: give the figure in nM, leave out the unit.

For this molecule ( O=C(O[C@@H]1Cc2c(O)cc(O)cc2O[C@@H]1c1cc(O)c(O)c(O)c1)c1cc(O)c(O)c(O)c1 [EPIGALOCATECHIN GALLATE] ), measured Kd is 360

---

Target: Small ribosomal subunit protein uS2 (Homo sapiens, UniProt P08865)
Assay: Binding affinity to His-tagged Laminin receptor in human A549 cells assessed as dissociation constant by surface plasmon resonance assay
Recorded Endpoint: pKd
The meaning of pKd here: minus log10 of the concentration in molar units.

O=C(O[C@@H]1Cc2c(O)cc(O)cc2O[C@@H]1c1cc(O)c(O)c(O)c1)c1cc(O)c(O)c(O)c1 [EPIGALOCATECHIN GALLATE] on Small ribosomal subunit protein uS2 (Homo sapiens, UniProt P08865) gives pKd = 7.40
